- measurement.target: SCG3
- measurement.protocol: pooled miR-30 sensor sort-seq; sequence = guide strand
- assay.conditions: shRNA
assay.endpoint: sensor-assay potency score (higher = more potent)
Answer with the value's number alone.

Study these solved cases before continuing.
[
  {
    "primary.sequence": "TTTATGATCCAATCCACTCTTA",
    "measured.result": -0.0664
  },
  {
    "primary.sequence": "TATTGTTCCATATTTCACCATC",
    "measured.result": -0.949
  },
  {
    "primary.sequence": "TTAATTTTTGTAAAACCTCTGC",
    "measured.result": -0.0676
  },
  {
    "primary.sequence": "TAGTTTAGAAACAATCTTGTCA",
    "measured.result": 0.211
  },
  {
    "primary.sequence": "TAGTAGAGTCATAATCATCGAT",
    "measured.result": 0.0703
  }
]

Shift focus to the following entry.
Request: Give its sensor-assay potency score (higher = more potent) value. Item: TAGTTGATGAAGACCATCTGGA
Response: 0.192

###

- measurement.target: CAMSAP1L1
- measurement.protocol: pooled miR-30 sensor sort-seq; sequence = guide strand
- assay.conditions: shRNA
assay.endpoint: sensor-assay potency score (higher = more potent)
Answer with the value's number alone.

Request: // fetch CAMSAP1L1 sensor-assay potency score (higher = more potent) for TTTTGCAGCATCACTCTTGAGA
Response: -0.108

Request: // fetch CAMSAP1L1 sensor-assay potency score (higher = more potent) for TACTTTTTCTATACTGACCATT
Response: -0.4

Request: // fetch CAMSAP1L1 sensor-assay potency score (higher = more potent) for TTCACCACTTCAAACCACCAGA
Response: -0.595

Request: // fetch CAMSAP1L1 sensor-assay potency score (higher = more potent) for TACTGTATCCATATCTTCCATT
Response: -0.745

###

- measurement.target: HNRNPL
- measurement.protocol: pooled miR-30 sensor sort-seq; sequence = guide strand
- assay.conditions: shRNA
assay.endpoint: sensor-assay potency score (higher = more potent)
Answer with the value's number alone.

Study these solved cases before continuing.
[
  {
    "primary.sequence": "TTCTTGAACACATTCAAGCGTG",
    "measured.result": -0.271
  },
  {
    "primary.sequence": "TTGTGTAGTCCCAAGTATCCTG",
    "measured.result": 0.0698
  }
]

Request: // fetch HNRNPL sensor-assay potency score (higher = more potent) for TTGAACTGAGTCAAATTCCACC
Response: -0.367

Request: // fetch HNRNPL sensor-assay potency score (higher = more potent) for ATAGTGTAAAGAACATCCGTGG
Response: -0.231

Request: // fetch HNRNPL sensor-assay potency score (higher = more potent) for TAGTGTAAAGAACATCCGTGGT
Response: -0.214

###

- measurement.target: C9orf172
- measurement.protocol: pooled miR-30 sensor sort-seq; sequence = guide strand
- assay.conditions: shRNA
assay.endpoint: sensor-assay potency score (higher = more potent)
Answer with the value's number alone.

Study these solved cases before continuing.
[
  {
    "primary.sequence": "TTGTCAGTGATGGTGATCTCGG",
    "measurement.target": "C9orf172",
    "measured.result": -1.12
  },
  {
    "primary.sequence": "TTGATGTCCTGGTACACGGTCG",
    "measurement.target": "C9orf172",
    "measured.result": -0.476
  },
  {
    "primary.sequence": "ATGATCATGCACATGAAGGGGC",
    "measurement.target": "C9orf172",
    "measured.result": 0.238
  },
  {
    "primary.sequence": "TAGTAGGTGTAGCAGCTGTGGC",
    "measurement.target": "C9orf172",
    "measured.result": -1.29
  }
]

Request: Give its sensor-assay potency score (higher = more potent) value. Item: TAGGTGTAGCAGCTGTGGCAGG
Response: -0.976

Request: Give its sensor-assay potency score (higher = more potent) value. Item: TACCTTCCGAAGTCCTCCGTGT
Response: -0.162

###

Overview of recorded sensor-assay potency score (higher = more potent) for various sequences
- measurement.target: ZNF383
- measurement.protocol: pooled miR-30 sensor sort-seq; sequence = guide strand
- assay.conditions: shRNA
Answer with the value's number alone.

Study these solved cases before continuing.
[
  {
    "primary.sequence": "TAAATTGTGAGTTCTGACTAAA",
    "measured.result": -0.929
  },
  {
    "primary.sequence": "TAACATGTGAACCACAACTAAA",
    "measured.result": -1.41
  }
]

Request: Give its sensor-assay potency score (higher = more potent) value. Item: TTGAGCAATAACTAAAGGCCTT
Response: -0.458

Request: Give its sensor-assay potency score (higher = more potent) value. Item: TATATTCCAAAACATCTCCAAA
Response: -1.29

Request: Give its sensor-assay potency score (higher = more potent) value. Item: TAAGATTTGAGCAATAACTAAA
Response: -1.31

Request: Give its sensor-assay potency score (higher = more potent) value. Item: TCTCTGATGTTGAACAAGCTTT
Response: -0.743

###

- measurement.target: KIAA0930
- measurement.protocol: pooled miR-30 sensor sort-seq; sequence = guide strand
- assay.conditions: shRNA
assay.endpoint: sensor-assay potency score (higher = more potent)

Study these solved cases before continuing.
[
  {
    "primary.sequence": "TTTGTCACTAGCCACCAGCTCC",
    "measurement.target": "KIAA0930",
    "measured.result": -0.835
  },
  {
    "primary.sequence": "TTCTTGAGCGCCTCGTAGCGGA",
    "measurement.target": "KIAA0930",
    "measured.result": -0.914
  },
  {
    "primary.sequence": "TTGCTGTACTTGTAGAAGCCAA",
    "measurement.target": "KIAA0930",
    "measured.result": -0.811
  }
]

Shift focus to the following entry.
Request: Give its sensor-assay potency score (higher = more potent) value. Item: TTCAGCTTCAGCCAGGACCCGA
Response: -1.04

###

- measurement.target: PM20D1
- measurement.protocol: pooled miR-30 sensor sort-seq; sequence = guide strand
- assay.conditions: shRNA
Is sensor-assay potency score (higher = more potent) at least -0.8? Then T. If not, F.

A selection of reference data follows.
[
  {
    "primary.sequence": "TTGAATATGGTGAGTGCCGTGG",
    "group.label": "T"
  },
  {
    "primary.sequence": "AATACAGTCACCACTGTCCCGC",
    "group.label": "T"
  },
  {
    "primary.sequence": "TTGTCGTCCAGTGTGCCCCGAC",
    "group.label": "T"
  },
  {
    "primary.sequence": "TTGGACTGTCTGTCCAGGGTGA",
    "group.label": "T"
  },
  {
    "primary.sequence": "TGACATTGAACTTGACCCCTGC",
    "group.label": "T"
  },
  {
    "primary.sequence": "TTTATGAATGTATTTTCCGAAC",
    "group.label": "F"
  },
  {
    "primary.sequence": "TTTCTCGTTGACTCCATGGATG",
    "group.label": "F"
  }
]

Please find the next sequence below.
Request: Is sensor-assay potency score (higher = more potent) at least -0.8? Consider TTGGACTGAGATTTTCTCGTTG
Response: T

###

- measurement.target: SPINK5
- measurement.protocol: pooled miR-30 sensor sort-seq; sequence = guide strand
- assay.conditions: shRNA
Is sensor-assay potency score (higher = more potent) at least -0.03? Then condition met. If not, condition not met.

A selection of reference data follows.
[
  {
    "primary.sequence": "TTGAGAAGCTCTAACATGGGAT",
    "group.label": "condition not met"
  },
  {
    "primary.sequence": "TTGAAAAAATTTCTTATCCTGG",
    "group.label": "condition not met"
  },
  {
    "primary.sequence": "TTTTCTTGAAGCTTTGCCCTTT",
    "group.label": "condition met"
  },
  {
    "primary.sequence": "ATACTCAGCACATTCGTCCTGA",
    "group.label": "condition met"
  },
  {
    "primary.sequence": "TTTAAAATCATCACAATTCAGC",
    "group.label": "condition not met"
  },
  {
    "primary.sequence": "TTGCTCTTGCTCTTTCTTCTTG",
    "group.label": "condition not met"
  },
  {
    "primary.sequence": "TTGTGCATCCAAGTCTTCCATC",
    "group.label": "condition not met"
  }
]

Please find the next sequence below.
Request: Is sensor-assay potency score (higher = more potent) at least -0.03? Consider TTTTGTTTCTAGCTCGTGCTTC
Response: condition met

###

Overview of recorded sensor-assay potency score (higher = more potent) for various sequences
- measurement.target: TAF5
- measurement.protocol: pooled miR-30 sensor sort-seq; sequence = guide strand
- assay.conditions: shRNA
Answer with the value's number alone.

Study these solved cases before continuing.
[
  {
    "primary.sequence": "TTGAATCTGCAAAACCTCCAGC",
    "measured.result": 0.0484
  },
  {
    "primary.sequence": "TATCTTATCCAACTTATCTGAA",
    "measured.result": -0.846
  },
  {
    "primary.sequence": "TAATACTCGTAGGTCATCCTGG",
    "measured.result": 0.422
  }
]

Request: Give its sensor-assay potency score (higher = more potent) value. Item: TAATCGAACTGTATTATCCATT
Response: -0.885
